From: patent US20090312403A1

# ASSAYED_SYSTEM: mouse B6 class I antigens (H-2^b: D^b or K^b) on RMA-S cells (mouse)
# EXPERIMENTAL_PROTOCOL: binding of 9mer peptide to mouse B6 (H-2^b) class I antigens, RMA-S cell assay
Binding Affinity to Mouse MHC Class I values for the binders below.
Put down the number, then write its unit next to it.

# example entries with known answers
NAPYLPSCL [WT1 peptide P130-138 (…)]: 79%
QARMFPNAP [WT1 peptide P124-132 (…)]: 1%
PNAPYLPSC [WT1 peptide P129-137 (…)]: 1%

Query: Binding Affinity to Mouse MHC Class I; subject: SSGQARMFP [WT1 peptide P121-129 (…)]
1%
